FYI, the data here is from patent US12441726B2.

Item-by-item account of IC50
# Target Or Test System: BRM (Homo sapiens)
# Sequence (P51531 whole entry): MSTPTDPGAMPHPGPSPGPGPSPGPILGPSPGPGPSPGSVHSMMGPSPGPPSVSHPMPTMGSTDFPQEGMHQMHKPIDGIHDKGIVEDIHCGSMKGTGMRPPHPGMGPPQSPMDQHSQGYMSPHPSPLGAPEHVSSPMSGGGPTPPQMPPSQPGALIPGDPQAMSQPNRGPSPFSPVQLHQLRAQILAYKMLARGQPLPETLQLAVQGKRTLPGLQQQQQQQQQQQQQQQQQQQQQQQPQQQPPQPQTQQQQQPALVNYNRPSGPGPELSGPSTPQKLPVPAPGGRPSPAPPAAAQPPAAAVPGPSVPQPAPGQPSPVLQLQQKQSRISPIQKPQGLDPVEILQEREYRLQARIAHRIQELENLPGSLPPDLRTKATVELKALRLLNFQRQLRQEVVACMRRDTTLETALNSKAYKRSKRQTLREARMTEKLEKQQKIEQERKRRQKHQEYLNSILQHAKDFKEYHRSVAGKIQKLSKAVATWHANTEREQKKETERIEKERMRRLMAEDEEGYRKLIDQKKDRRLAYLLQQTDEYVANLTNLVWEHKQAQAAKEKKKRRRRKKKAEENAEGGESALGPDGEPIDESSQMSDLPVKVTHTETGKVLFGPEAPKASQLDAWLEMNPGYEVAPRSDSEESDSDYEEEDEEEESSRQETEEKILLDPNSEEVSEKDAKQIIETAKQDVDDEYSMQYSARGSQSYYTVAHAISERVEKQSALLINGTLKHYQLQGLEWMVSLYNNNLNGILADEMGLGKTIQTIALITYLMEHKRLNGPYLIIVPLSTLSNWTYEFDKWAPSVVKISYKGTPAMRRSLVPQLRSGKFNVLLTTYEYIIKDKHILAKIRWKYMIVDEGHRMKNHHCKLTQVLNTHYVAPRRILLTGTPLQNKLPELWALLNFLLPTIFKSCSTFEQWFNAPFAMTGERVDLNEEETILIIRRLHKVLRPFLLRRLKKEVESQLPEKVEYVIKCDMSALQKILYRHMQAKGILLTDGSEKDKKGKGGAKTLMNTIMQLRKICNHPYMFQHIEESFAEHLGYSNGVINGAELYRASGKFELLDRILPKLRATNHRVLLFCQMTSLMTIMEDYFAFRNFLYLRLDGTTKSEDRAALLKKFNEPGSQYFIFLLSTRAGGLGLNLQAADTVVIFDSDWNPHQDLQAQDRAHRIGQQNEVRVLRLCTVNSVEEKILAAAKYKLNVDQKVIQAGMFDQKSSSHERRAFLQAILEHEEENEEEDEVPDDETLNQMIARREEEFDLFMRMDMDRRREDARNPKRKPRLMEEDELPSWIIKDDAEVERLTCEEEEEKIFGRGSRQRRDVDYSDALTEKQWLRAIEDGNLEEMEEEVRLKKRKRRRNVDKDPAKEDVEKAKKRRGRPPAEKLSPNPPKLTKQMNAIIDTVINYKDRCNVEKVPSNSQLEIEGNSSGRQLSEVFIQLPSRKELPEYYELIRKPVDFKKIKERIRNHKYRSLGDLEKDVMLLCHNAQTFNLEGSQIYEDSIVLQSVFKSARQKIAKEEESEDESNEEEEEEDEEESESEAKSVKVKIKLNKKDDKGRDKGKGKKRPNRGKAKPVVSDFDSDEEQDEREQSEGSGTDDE
# Protocol: ATPase catalytic activity assay (ADP-Glo), BRM
# Test Context: BRM ATPase: IC50 (uM), 30 nM BRM, 400 μM ATP

Example entries begin here.
COc1nn(C)cc1-c1ccc2cnc(CNC(=O)c3cc(F)c4c(c3)[C@](C)(F)COC4)cc2n1 : < 0.1 µM
Cn1ncc2c1CN(c1ccc3cnc(CNC(=O)c4ccc5c(c4)[C@](C)(C#N)COC5)cc3n1)C2 : 0.1 to 0.5 µM
C[C@@]1(C#N)COCc2ccc(C(=O)NCc3cnc4ccc(-c5ccccc5)nc4c3)cc21 : > 1 µM
C[C@@]1(F)COCc2ccc(C(=O)NCc3cc4nc(-c5ccnc(N6CC[C@H]7COC[C@@H]7C6)n5)ccc4cn3)cc21 : < 0.1 µM
COCCOCCC(=O)N1CCN(c2cccc(-c3ccc4cnc(CNC(=O)c5ccc6c(c5)[C@](C)(C#N)COC6)cc4n3)n2)CC1 : < 0.1 µM
C[C@@]1(F)COCc2ccc(C(=O)NCc3cc4nc(N5CCN(C6CC6)S5(=O)=O)ccc4cn3)cc21 : 0.1 to 0.5 µM
C[C@@]1(C#N)COCc2ccc(C(=O)NCc3cc4c(nn3)CCN(c3cccc(N5CCC5)n3)C4)cc21 : 0.1 to 0.5 µM
Cn1ncc2c1CN(c1ccc3cnc(CNC(=O)c4ccc5c(c4)[C@](C)(C#N)COC5)cc3n1)CC2 : 0.1 to 0.5 µM
COc1nn(C(F)F)cc1-c1ccc2cnc(CNC(=O)c3ccc4c(c3)[C@](C)(C#N)COC4)cc2n1 : < 0.1 µM
COc1nn(C2CC2)cc1-c1ccc2cnc(CNC(=O)c3ccc4c(c3)[C@](C)(C#N)COC4)cc2n1 : 0.1 to 0.5 µM

What value of IC50 on BRM (Homo sapiens) does C[C@@]1(C#N)COCc2ccc(C(=O)NCc3nccc(N4Cc5ccccc5C4)c3F)cc21 have?
< 0.1 µM

What value of IC50 on BRM (Homo sapiens) does [2H]C1([2H])OC([2H])([2H])[C@@](C)(F)c2cc(C(=O)NCc3cc4nc(-c5cncc(C6CC6)n5)ccc4cn3)cnc21 have?
< 0.1 µM

What value of IC50 on BRM (Homo sapiens) does C[C@@]1(C#N)COCc2ccc(C(=O)NCc3cc4cc(-c5cncc(C6CC6)n5)cnc4cn3)cc21 have?
< 0.1 µM

What value of IC50 on BRM (Homo sapiens) does C[C@@H]1CN(c2cccc([C@H]3C[C@H](c4ccnc(CNC(=O)c5ccc6c(c5)[C@](C)(C#N)COC6)c4)C3)n2)C[C@H](C)O1 have?
< 0.1 µM
